Listed next: entries and their corresponding DGI-2/LDH.
Target: T1, DGI-2 polypeptide (UniProt Q15004 1-111, limits assumed)
T1 construct: Soluble recombinant protein coated at 500 ng/well; vector tag of pIVEX2.3-MCS not described for this construct; also called KIAA0101
T1 sequence (looked up): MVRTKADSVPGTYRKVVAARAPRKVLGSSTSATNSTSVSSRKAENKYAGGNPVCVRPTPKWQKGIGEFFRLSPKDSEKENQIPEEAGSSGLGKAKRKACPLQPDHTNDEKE
Experiment: phage ELISA
All answers are understood in ratio, so give the number only.

Recorded results for 5 binders are shown here.
GSTRLRVTVRFCSETGTPGCAAAGAPVPYPDPLEPRP [DGI-2-20F-PP-G6]; 2.5
VGQSSGDARPLANLFVFPFVAAAGAPVPYPDPLEPRP [DGI-2-20F-PP-F12]; 2.3
RSIRLQLIDEACQFFDGLCTAAAGAPVPYPDPLEPRP [DGI-2-20R-3-A8]; 6.4
CYLSRLFRSGQGIGQFGHVEAAAGAPVPYPDPLEPRP [DGI-2-20F-PP-A82]; 2.3
TFTRDVAGPAVSFVRLHSWNAAAGAPVPYPDPLEPRP [DGI-2-20F-PP-A9]; 2.3

Next:
Quick one: DGI-2/LDH of VSGVPDGSMRAAQLASGYWCAAAGAPVPYPDPLEPRP [DGI-2-20F-PP-G2] ? 2.1

All values here come from patent US7056679.
